Target: TRPML1 (Homo sapiens)
Construct: expressed in transfected cells; host or cells: HEK T-REx cells stably expressing GCaMP6f and TRPML1
Assay: Cellular TRPML1 assay (FLIPR, GCaMP6f calcium read-out)
Type: cell-based
Settings: HEKT-REx/GCaMP6f/TRPML1 cells, FLIPR TETRA, kinetic response over 300 seconds; read-out: TRPML1 FLIPR pEC50 (converted)
testReadout: EC50

Use these answered entries as a reference point.
COC1CN(c2nc(C(=O)Nc3ccc(OC4CCCC4(F)F)c(F)c3)c(CC(F)(F)F)o2)C1 (stereo not shown) [Example 8]
1000 to 10000 nM
Cc1oc(N2CCCC2)nc1C(=O)Nc1ccc(OC2CCCC2)c(F)c1 [Example 120]
1000 to 10000 nM
CCC1(CC)CN(c2nc(C(=O)Nc3cc(C)c(O[C@@H]4C[C@@H]5C[C@@H]5C4)c(F)c3)c(CN3CCC3)o2)C1 [Example 297]
1000 to 10000 nM
O=C(Nc1cc(F)c(OC2CC3C[C@H]3C2)c(F)c1)c1nc(N2CCC3(CC3)C2)oc1CC(F)(F)F (stereo partly shown) [Example 38]
10 to 1000 nM
CCc1oc(N2CCCCCC2)nc1C(=O)Nc1cc(F)c(O[C@@H]2C[C@@H]3C[C@@H]3C2)c(F)c1 [Example 242]
10 to 1000 nM

Need EC50, item COCC1(C)CN(c2nc(C(=O)Nc3cc(C)c(O[C@@H]4C[C@@H]5C[C@@H]5C4)c(F)c3)c(CC(F)(F)F)o2)C1 [Example 124]
10 to 1000 nM

Need EC50, item O=C(Nc1ccc(OC2CCCC2)c(F)c1)c1nc(N2C[C@H]3CCO[C@H]3C2)oc1CC(F)(F)F [Example 61]
1000 to 10000 nM

###

Target: TRPML1 (Homo sapiens)
Construct: expressed in transfected cells; host or cells: HEK T-REx cells stably expressing GCaMP6f and TRPML1
Experiment: Cellular TRPML1 assay (FLIPR, GCaMP6f calcium read-out)
Type: cell-based
Conditions: HEKT-REx/GCaMP6f/TRPML1 cells, FLIPR TETRA, kinetic response over 300 seconds; read-out: TRPML1 FLIPR pEC50 (converted)
testReadout: EC50

Please tell me: EC50 of CCc1oc(N2CC3CCC3C2)nc1C(=O)Nc1ccc(OC2CC3C[C@H]3C2)c(F)c1 (some centres unmarked) [Example 247] , system TRPML1 (Homo sapiens)?
10 to 1000 nM

###

Molecular target: TRPML1 (Homo sapiens, UniProt Q9GZU1)
Construct: expressed in transfected cells; host or cells: HEK T-REx cells stably expressing GCaMP6f and TRPML1
Sequence (Q9GZU1 whole entry): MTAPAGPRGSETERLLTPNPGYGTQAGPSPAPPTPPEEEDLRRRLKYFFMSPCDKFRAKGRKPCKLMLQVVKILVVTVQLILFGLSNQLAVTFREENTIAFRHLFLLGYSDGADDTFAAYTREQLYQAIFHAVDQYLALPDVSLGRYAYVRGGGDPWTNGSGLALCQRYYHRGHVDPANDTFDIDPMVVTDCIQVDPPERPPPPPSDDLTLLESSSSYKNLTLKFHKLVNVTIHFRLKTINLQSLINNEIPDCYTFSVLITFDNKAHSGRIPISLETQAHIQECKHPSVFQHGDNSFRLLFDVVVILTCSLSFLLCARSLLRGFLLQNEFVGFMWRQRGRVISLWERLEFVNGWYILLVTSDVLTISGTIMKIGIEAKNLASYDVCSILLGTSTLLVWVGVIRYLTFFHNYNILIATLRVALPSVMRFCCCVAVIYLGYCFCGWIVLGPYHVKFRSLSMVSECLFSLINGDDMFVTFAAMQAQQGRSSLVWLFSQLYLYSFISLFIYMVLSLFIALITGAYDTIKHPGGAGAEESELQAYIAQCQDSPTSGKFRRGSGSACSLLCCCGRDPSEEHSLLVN
Test: Cellular TRPML1 assay (FLIPR, GCaMP6f calcium read-out)
Assay type: cell-based
Conditions: HEKT-REx/GCaMP6f/TRPML1 cells, FLIPR TETRA, kinetic response over 300 seconds; read-out: TRPML1 FLIPR pEC50 (converted)
testReadout: EC50

Use these answered entries as a reference point.
CCC1(CC)CN(c2nc(C(=O)Nc3cnc(OC4CC5C[C@H]5C4)c(F)c3)c(CC(F)(F)F)o2)C1 (stereo partly drawn)
1 to 10 µM
O=C(Nc1ccc(OC2CC3C(C2)C3(F)F)c(F)c1)c1nc(N2CCCC2)oc1CC(F)(F)F (stereo not drawn)
1 to 10 µM

Need EC50, item `COC1(C)CN(c2nc(C(=O)Nc3cc(F)c(O[C@@H]4C[C@@H]5C[C@@H]5C4)c(F)c3)c(CCF)o2)C1`
0.01 to 1 µM

The reported measurements were obtained from patent US12098145B2.
